Cited source: ChEMBL document CHEMBL1131602

EXPERIMENTAL_SYSTEM: Bifunctional dihydrofolate reductase-thymidylate synthase (Plasmodium falciparum K1, UniProt P13922)
EXPERIMENT_DESCRIPTION: Inhibitory activity against mutant Plasmodium falciparum DHFR-TS
Sequence (P13922 whole entry, looked up): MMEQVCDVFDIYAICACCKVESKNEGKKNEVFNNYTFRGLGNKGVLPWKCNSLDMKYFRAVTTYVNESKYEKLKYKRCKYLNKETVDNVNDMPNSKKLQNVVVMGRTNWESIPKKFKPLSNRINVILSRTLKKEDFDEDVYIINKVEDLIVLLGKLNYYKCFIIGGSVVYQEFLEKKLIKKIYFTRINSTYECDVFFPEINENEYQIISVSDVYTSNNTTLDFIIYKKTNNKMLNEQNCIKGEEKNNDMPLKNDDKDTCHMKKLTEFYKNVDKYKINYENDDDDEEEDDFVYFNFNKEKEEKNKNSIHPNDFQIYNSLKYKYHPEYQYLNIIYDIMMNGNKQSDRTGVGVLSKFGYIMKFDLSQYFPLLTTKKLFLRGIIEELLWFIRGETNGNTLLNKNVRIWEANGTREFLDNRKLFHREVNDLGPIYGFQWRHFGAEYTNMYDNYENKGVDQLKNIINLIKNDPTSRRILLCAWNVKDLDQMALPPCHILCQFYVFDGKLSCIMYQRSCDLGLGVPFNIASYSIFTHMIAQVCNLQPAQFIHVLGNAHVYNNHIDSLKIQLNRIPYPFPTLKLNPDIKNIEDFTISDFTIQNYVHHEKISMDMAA
QUANTITY_NAME: IC50 (µM)

TEST_SMILES	UNIT_OF_MEASUREMENT	EXPERIMENTAL_VALUE
CCc1nc(N)nc(N)c1-c1cccc(Cl)c1	µM	0.0127
CCc1nc(N)nc(N)c1-c1cccc(OC)c1	µM	0.073

---

Measured Ki accompanies every entry in the list below.
EXPERIMENTAL_SYSTEM: Bifunctional dihydrofolate reductase-thymidylate synthase (Plasmodium falciparum K1)
EXPERIMENT_DESCRIPTION: Binding affinity was evaluated as inhibition of recombinant wild type (WT) Plasmodium falciparum DHFR-TS.
Sequence (P13922 whole entry): as the sequence (P13922 whole entry, looked up) above

TEST_SMILES	UNIT_OF_MEASUREMENT	Ki
CCc1nc(N)nc(N)c1-c1cccc(Cl)c1	nM	0.3
CC1(C)N=C(N)N=C(N)N1c1ccc(Cl)cc1	nM	2.6
CCc1nc(N)nc(N)c1-c1cccc(OC)c1	nM	1.07
NC(=O)c1ccc[n+]([C@H]2O[C@@H](COP(=O)([O-])OP(=O)(O)OC[C@H]3O[C@@H](n4cnc5c(N)ncnc54)[C@H](OP(=O)(O)O)[C@@H]3O)[C@H](O)[C@@H]2O)c1	nM	4.7

---

Test system: Plasmodium falciparum
EXPERIMENT_DESCRIPTION: In vitro inhibition of Plasmodium falciparum K1 (S108N + C59R) culture
Type: functional, organism-based

TEST_SMILES	IC50 [nM]
CCc1nc(N)nc(N)c1-c1ccc(Cl)cc1	10.2
CCc1nc(N)nc(N)c1-c1cccc(OC)c1	3.7

---

Measured IC50 accompanies every entry in the list below.
Test system: Plasmodium falciparum
EXPERIMENT_DESCRIPTION: In vitro inhibition of Plasmodium falciparum HB3 (S108N) culture
Format: functional, organism-based
QUANTITY_NAME: IC50

TEST_SMILES	EXPERIMENTAL_SYSTEM	EXPERIMENTAL_VALUE
CCc1nc(N)nc(N)c1-c1ccc(Cl)cc1	Plasmodium falciparum	1.2 nM
CCc1nc(N)nc(N)c1-c1cccc(OC)c1	Plasmodium falciparum	0.2 nM

---

EXPERIMENT_DESCRIPTION: Ratio of inhibitions against mutant and wild type (WT) Plasmodium falciparum DHFR-TS.

MOLECULE	Ratio
CCc1nc(N)nc(N)c1-c1cccc(OC)c1	13.1
NC(=O)c1ccc[n+]([C@H]2O[C@@H](COP(=O)([O-])OP(=O)(O)OC[C@H]3O[C@@H](n4cnc5c(N)ncnc54)[C@H](OP(=O)(O)O)[C@@H]3O)[C@H](O)[C@@H]2O)c1	3.09
CC1(C)N=C(N)N=C(N)N1c1ccc(Cl)cc1 [CYCLOGUANIL]	31.5
CCc1nc(N)nc(N)c1-c1cccc(Cl)c1	8
